I'd be grateful if you could share measured photoluminescence quantum yield for these entries.
run.description: photoluminescence quantum yield (fraction); solvent given as SMILES
conditions.used: in CCOC(C)=O
Number, no unit, nothing else.

Item: "CCn1c2ccccc2c2cc(-c3cc(-c4ccc5c(c4)c4ccccc4n5CC)nc(SC)n3)ccc21" | photoluminescence quantum yield: 0.39

Item: "COC(=O)/C=C/c1ccc2ccc3cccc4ccc1c2c34" | photoluminescence quantum yield: 0.57

Item: "COc1cc(/C=C/c2ccccc2)cc(OC)c1" | photoluminescence quantum yield: 0.29

Item: "Cc1ccc(-n2c3ccccc3c3cc(C=C(C#N)C#N)ccc32)cc1" | photoluminescence quantum yield: 0.09

From: the Deep4Chem optical property database
